Entries and their kon values follow.
TARGET_ENTITY: T1, PD-1 (UniProt Q15116 25-170, limits assumed)
T1 construct: also called PD-1 protein
MEASUREMENT_PROTOCOL: SPR; set-up and antigen form not restated
Write it as a number; the unit M⁻¹ s⁻¹ goes unstated.

>  <BINDER>
NB194-P29-z6 (Fc fusion, not shown: IgG4 constant region of vector pCDNA3.4-IgG4) heavy: QVQLVESGGGLVQPGGSLRLSCSASGHSFSIYDMGWFRQAAGKERESVAVINFGRGTTYYAESVKGRFTISRDNAKNTVYLQMNSLRAEDTAVYSCGIDRRQYGLGIPPLADHWGQGSQVTVSS

>  <kon / M⁻¹ s⁻¹>
113000

$$$$
>  <BINDER>
NB194-P29-z9 (Fc fusion, not shown: IgG4 constant region of vector pCDNA3.4-IgG4) heavy: QVQLVESGGGLVQPGGSLRLSCSASGFTFSIYDMGWFRQAADKERESVAVINFGRGTTYYAESVKGRFTISRDNAKNTVYLQMNSLRAEDTAVYSCGIDRRQYGLGIPPLADHWGQGSQVTVSS

>  <kon / M⁻¹ s⁻¹>
124000

$$$$
>  <BINDER>
NB194-P29-z3 (Fc fusion, not shown: IgG4 constant region of vector pCDNA3.4-IgG4) heavy: QVQLVESGGGLVQPGGSLTLSCSASGHSFSIYDMGWFRQAADKERESVAVINFGRGTTYYAESVKGRFTISRDNAKNTVYLQMNSLRAEDTAVYSCGIDRRQYGLGIPPLADHWGQGSQVTVSS

>  <kon / M⁻¹ s⁻¹>
186000

$$$$
>  <BINDER>
NB194-P29 (Fc fusion, not shown: IgG4 constant region of vector pCDNA3.4-IgG4) heavy: QLQLVESGGGSAQAGGSLTLSCTASGHSFSIYDMGWFRQAADKERESVAVINFGRGTTYYAESVKGRFTISLDSAKNTVYLQMNTLKPEDTAVYSCGIDRRQYGLGIPPLADHWGQGSQVTVSS

>  <kon / M⁻¹ s⁻¹>
290000

$$$$

# kon lookup, item NB194-P29-z8 (Fc fusion, not shown: IgG4 constant region of vector pCDNA3.4-IgG4) heavy: QVQLVESGGGLVQPGGSLRLSCSASGHSFSIYDMGWFRQAPGKERESVAVINFGRGTTYYAESVKGRFTISRDNAKNTVYLQMNSLRAEDTAVYSCGIDRRQYGLGIPPLADHWGQGSQVTVSS 108000

# kon lookup, item NB194-P29-z7 (Fc fusion, not shown: IgG4 constant region of vector pCDNA3.4-IgG4) heavy: QVQLVESGGGLVQPGGSLRLSCSASGHSFSIYDMGWFRQAADKERESVAVINFGRGTTYYAESVKGRFTISLDNAKNTVYLQMNSLRAEDTAVYSCGIDRRQYGLGIPPLADHWGQGSQVTVSS 145000

# kon lookup, item NB194-P29-z10 (Fc fusion, not shown: IgG4 constant region of vector pCDNA3.4-IgG4) heavy: ELQLVESGGGLVQPGGSLRLSCAASGHSFSIYDMGWFRQAADKERESVAVINFGRGTTYYAESVKGRFTISRDNAKNTVYLQMNSLRAEDTAVYSCGIDRRQYGLGIPPLADHWGQGSQVTVSS 96800
